Values compiled from the Human Domainome abundance scans (Beltran et al. 2025).

B1: POU domain, class 3, transcription factor 4, residues 280 to 335; numbered along this chain, P49335 (parent)
chain: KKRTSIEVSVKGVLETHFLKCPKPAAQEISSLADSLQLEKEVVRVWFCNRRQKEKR

Variants of: B1
experimentSummary: abundance fitness (aPCA) (normalised: wild type 0, dead -1); higher = more abundant; growth selection in yeast, the domain comes from the species named
measurementContext: Homo sapiens
Binning of abundance fitness into classes: low band (below -0.8), middle band (-0.8 to below -0.4), high band (-0.4 or more)

1) N49L	middle band
2) R44E	high band
3) R50M	middle band
4) T16S	high band
5) V13C	middle band
6) K55W	middle band
7) L19V	middle band
8) A25H	high band
9) K40W	middle band
10) C21Q	high band
11) A33K	low band
12) E41W	low band
13) W46M	low band
14) V42P	low band
